These data points were gathered from paper PMC12136788.

# EXPERIMENTAL_SYSTEM: T1, UNK ZnF1-3 (human, UniProt Q9C0B0 31-174)
# T1 sequence: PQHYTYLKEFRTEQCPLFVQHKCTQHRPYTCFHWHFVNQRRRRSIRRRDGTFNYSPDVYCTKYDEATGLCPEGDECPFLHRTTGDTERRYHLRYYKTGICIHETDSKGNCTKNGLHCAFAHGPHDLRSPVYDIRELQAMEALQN
# ASSAY_OVERVIEW: nsRBNS (natural sequence RNA bind-n-seq); RBNS binding buffer (assumed for nsRBNS): 25 mM Tris pH 7.5, 150 mM KCl, 3 mM MgCl2, 0.01% Triton X-100, 500 ug/ml BSA, 20 U/ml SUPERase-In, 4 C; UNK is unkempt and MSI1 is Musashi-1; names of the RNAs are library labels; protein concentration not given here; high values mean tight binding
Whole data set: some 24,000 sequences, median “enrichment r” near 0.99, cut for the highest 2% near 3.7. The entries come from a sample that favours the highest values as a whole.
ATTRIBUTE_MEASURED: binding signal (enrichment R)

BINDER	OBSERVED_VALUE
chr12:39756943:39756944:-_ENSG00000139116_ENST00000544797|hu_mus|hu_hu_hu_mus_False|8_28 (ssRNA) RNA: GGGAGUUCUACAGUCCGACGAUCGGUUUGGCUGUUACCCCCAAGGGAAUCCUGCAAGAGUCUUGUCAGCUUAGAGUCUCUGUAAGGGACAUGGGUGGCUCUCUUGCUCUUGUCUCCCAAGGCGCUGAUUACAUUGCCAAGAGCCAACAGAGGAUUGAGCAUCA	0.697
chr12:39763582:39763583:-_ENSG00000139116_ENST00000544797|hu_mus|hu_hu_hu_mus_False|18_58 (ssRNA) RNA: GGGAGUUCUACAGUCCGACGAUCCUCUAGGAACUGGGCAUUCACUUUGAAUUCAGGAGGGGGCAGCCCGUUUUUAAUUGCUAUGUGCUUUUUCUCAUCAAUACUCUUGAACAGGUGUUUAACAGCUCGAGAGAUGAUGCCCUGCAACAGAGGAUUGAGCAUCA	1.58
chr4:144447494:144447495:+_ENSG00000153147_ENST00000283131|hu_hu|motif|central (ssRNA) RNA: GGGAGUUCUACAGUCCGACGAUCCCAGUUGUGUAAUGUAGACUUAGGAACCAAAACCAUAUGAGGCCCAGGAAUGUUUCGGUAAUGUUUCAUGUACCCAAGAAGAGAAAUUGUUUGAAGAGUCUUUCCUAGGCCCAUUUCAUCCAACAGAGGAUUGAGCAUCA	1
